src = ChEMBL document CHEMBL4513216

test system: Plasmodium berghei; test: Screen against P. berghei liver stage (PbLuc), transformed with Luciferase, at 10uM; type: functional, HepG2; details: tested at 10 uM
Hit rate of the full screen: of about 69,000 compounds, about 8,600 (12%) showed an effect of 50% or more. For the sample, strong results were picked, then their nearest neighbours and some compounds at random.
Quick rule for you: INHIBITION under 30% gets True, anything else gets False.

Task item: Does the reported INHIBITION of the following compound sit strictly below 30%? Cc1nc(NCc2noc(C3CCCO3)n2)c2sccc2n1 (stereo unspecified)
Reply: False

Task item: # check: INHIBITION < 30% for COc1ccc(CN2CCOC3(CCCN(C(C)=O)C3)C2)cc1 (stereo unspecified)
Reply: True

Task item: Identify whether the compound O=C1CSc2ccccc2N1Cc1noc(C2CCCO2)n1 (stereo unspecified) records INHIBITION below 30%.
Reply: True

Task item: Please check: INHIBITION for Cc1nc(N(Cc2ccncc2)CC2CCCO2)c2ccsc2n1 (stereo unspecified) , strictly under 30% or not?
Reply: False

Task item: Dear colleague, could you confirm whether INHIBITION of O=C(NCc1noc(C2CCCO2)n1)c1cn2ccsc2n1 (stereo unspecified) falls below 30%? Thanks.
Reply: True

Task item: Record O=C(Cc1ccsc1)N1C[C@@H]2OCCN(CC3CC3)[C@@H]2C1 : is its INHIBITION strictly below 30%?
Reply: False

----------
Answer each item with its documented INHIBITION.
tested on: Plasmodium berghei; assay: Screen against P. berghei liver stage (PbLuc), transformed with Luciferase, at 10uM; assay type: functional, HepG2; conditions: tested at 10 uM
Hit rate of the full screen: of about 69,000 compounds, about 8,600 (12%) showed an effect of 50% or more. Many of the other results were omitted from the sample, so strong results are more common in it than they were.
Your answer should be a plain number; it is taken to be in %.

Task item: // lookup INHIBITION for Cc1cnn(CCNCc2csc(-c3ccsc3)n2)c1
Reply: -69.15

Task item: Need INHIBITION of CSCc1cccc(S(=O)(=O)N2CCCC2)c1 , thanks.
Reply: 33.3

Task item: What value of INHIBITION has been recorded for this entry: Cc1cnn(CC2CCCN2C(=O)c2csc(C3CC3)n2)c1 (configuration not stated)
Reply: -23.9

Task item: Would you mind telling me what INHIBITION value was observed for CCc1ccc(C(=O)NC2CCCN(c3ccn(C)n3)C2=O)o1 (configuration not stated) ?
Reply: 20.3

Task item: Look at this compound and give its reported INHIBITION. Cc1nc(NCc2nonc2C)cc(C(C)Cn2nc(C)c(C)c2C)n1 (configuration not stated)
Reply: 43.8

Task item: Quick check: INHIBITION of Cc1nc[nH]c1CN1CCn2nc(CN3Cc4ccccc4C3)cc2C1 ?
Reply: 22.8

Task item: Need INHIBITION of CCc1ccc(C(=O)NC2CCN(c3ccn(C)n3)C2)o1 (configuration not stated) , thanks.
Reply: 62.4

Task item: Which INHIBITION value belongs to Cc1nc[nH]c1CN1CCCC12CCN(c1ccccn1)CC2 ?
Reply: 20.9

Task item: Fill in the blank: the reported INHIBITION of CN1CCC(N(CCc2ccccc2)C(=O)c2ccoc2)CC1 is ____.
Reply: 32.8

Task item: Name the recorded INHIBITION for O=C(NCc1ccc2c(c1)OCO2)Nc1cccnc1N1CCCC1 .
Reply: -4.94

Task item: What does the record list as INHIBITION for CC(=O)c1ccc(CN2CCCC23CCN(c2ccccn2)CC3)cc1 ?
Reply: 49.9

Task item: Param item = Cn1cc(CN2CCCC23CCN(c2nc4ccccc4s2)CC3)cn1 ; retrieve measured INHIBITION.
Reply: 47
